Test: RP-HPLC retention on Cosmosil Cholester column, buffer pH 7.4-acetonitrile
Format: physicochemical
Conditions: slope of Soczewiński-Wachtmeister equation, acetonitrile φ 0.4–0.6
Simple rule here: s Cholester less than 5 is 1.0, otherwise 0.0.

IN: Is 5 strictly greater than the compound's reported s Cholester? compound: CCc1nnc2n(c1=O)CCN2c1ccc(Cl)cc1 [Compound 5]
OUT: 1.0

IN: Is 5 strictly greater than the compound's reported s Cholester? compound: O=c1c(Cc2ccccc2Cl)nnc2n1CCN2c1ccc(Cl)cc1 [Compound 58]
OUT: 0.0

IN: Is 5 strictly greater than the compound's reported s Cholester? compound: Cc1ccccc1N1CCn2c1nnc(-c1ccco1)c2=O [Compound 19]
OUT: 1.0

IN: Is 5 strictly greater than the compound's reported s Cholester? compound: O=c1c(-c2ccccc2)nnc2n1CCN2c1cccc(Cl)c1 [Compound 38]
OUT: 0.0

IN: Is 5 strictly greater than the compound's reported s Cholester? compound: Cc1ccc(N2CCn3c2nnc(Cc2ccccc2)c3=O)cc1 [Compound 45]
OUT: 1.0

IN: Is 5 strictly greater than the compound's reported s Cholester? compound: CCc1nnc2n(c1=O)CCN2c1ccccc1 [Compound 1]
OUT: 1.0

IN: Is 5 strictly greater than the compound's reported s Cholester? compound: O=c1c(Cc2ccc(Cl)cc2)nnc2n1CCN2c1ccc(Cl)cc1 [Compound 60]
OUT: 0.0

IN: Is 5 strictly greater than the compound's reported s Cholester? compound: O=c1c(-c2ccco2)nnc2n1CCN2c1c(Cl)cccc1Cl [Compound 28]
OUT: 1.0

IN: Is 5 strictly greater than the compound's reported s Cholester? compound: Cc1ccc(N2CCn3c2nnc(CCc2ccccc2)c3=O)cc1 [Compound 62]
OUT: 1.0

====

Experiment: RP-HPLC retention on IAM.PC.DD2 (immobilized artificial membrane) column, buffer pH 7.4-acetonitrile
Format: physicochemical
Conditions: extrapolated to buffer pH 7.4 as mobile phase, 25 °C
I'd appreciate it if you could supply log kw, IAM values for the items below.

* Cc1ccc(N2CCn3c2nnc(Cc2ccc(Cl)cc2)c3=O)cc1 | 2.81
* CCOc1ccc(N2CCn3c2nnc(Cc2ccc(C)cc2)c3=O)cc1 | 2.43
* O=c1c(CCc2ccccc2)nnc2n1CCN2c1ccccc1Cl | 1.81

Each compound below has a reported value. Please supply its log kw, IAM.
1. O=c1c(Cc2ccc(Cl)cc2)nnc2n1CCN2c1ccccc1
2. COC(=O)Cc1nnc2n(c1=O)CCN2c1ccc(Cl)cc1
3. O=c1c(-c2ccccc2)nnc2n1CCN2c1ccccc1
4. Cc1ccccc1N1CCn2c1nnc(-c1ccco1)c2=O
5. O=c1c(Cc2ccccc2)nnc2n1CCN2c1ccc(Cl)cc1
6. O=c1c(-c2ccco2)nnc2n1CCN2c1ccc(Cl)c(Cl)c1

OUT:
1: 2.39; 2: 1.82; 3: 1.91; 4: 0.96; 5: 2.52; 6: 3.23

Each compound below has a reported value. Please supply its log kw, IAM.
1. COc1ccccc1N1CCn2c1nnc(-c1ccccc1)c2=O
2. Cc1ccc(N2CCn3c2nnc(Cc2cccc(C)c2)c3=O)cc1
3. CCc1nnc2n(c1=O)CCN2c1ccc(Cl)c(Cl)c1
4. CCOc1ccc(N2CCn3c2nnc(Cc2ccc(Cl)cc2)c3=O)cc1
5. O=c1c(CCc2ccccc2)nnc2n1CCN2c1ccc(Cl)cc1
6. O=c1c(Cc2cccc(Cl)c2)nnc2n1CCN2c1ccccc1
7. O=c1c(-c2ccccc2)nnc2n1CCN2c1ccccc1Cl
8. CCc1nnc2n(c1=O)CCN2c1ccccc1

OUT:
1: 1.47; 2: 2.59; 3: 1.85; 4: 2.72; 5: 2.68; 6: 2.48; 7: 1.73; 8: 0.55

Each compound below has a reported value. Please supply its log kw, IAM.
1. O=c1c(-c2ccco2)nnc2n1CCN2c1c(Cl)cccc1Cl
2. Cc1ccccc1N1CCn2c1nnc(Cc1ccccc1Cl)c2=O
3. O=c1c(-c2ccco2)nnc2n1CCN2c1cccc(Cl)c1

OUT:
1.70
2.02
2.08
